Readings of EC50 for the listed compounds
System: TLR2 (Homo sapiens, UniProt O60603)
Sequence (O60603 21-784): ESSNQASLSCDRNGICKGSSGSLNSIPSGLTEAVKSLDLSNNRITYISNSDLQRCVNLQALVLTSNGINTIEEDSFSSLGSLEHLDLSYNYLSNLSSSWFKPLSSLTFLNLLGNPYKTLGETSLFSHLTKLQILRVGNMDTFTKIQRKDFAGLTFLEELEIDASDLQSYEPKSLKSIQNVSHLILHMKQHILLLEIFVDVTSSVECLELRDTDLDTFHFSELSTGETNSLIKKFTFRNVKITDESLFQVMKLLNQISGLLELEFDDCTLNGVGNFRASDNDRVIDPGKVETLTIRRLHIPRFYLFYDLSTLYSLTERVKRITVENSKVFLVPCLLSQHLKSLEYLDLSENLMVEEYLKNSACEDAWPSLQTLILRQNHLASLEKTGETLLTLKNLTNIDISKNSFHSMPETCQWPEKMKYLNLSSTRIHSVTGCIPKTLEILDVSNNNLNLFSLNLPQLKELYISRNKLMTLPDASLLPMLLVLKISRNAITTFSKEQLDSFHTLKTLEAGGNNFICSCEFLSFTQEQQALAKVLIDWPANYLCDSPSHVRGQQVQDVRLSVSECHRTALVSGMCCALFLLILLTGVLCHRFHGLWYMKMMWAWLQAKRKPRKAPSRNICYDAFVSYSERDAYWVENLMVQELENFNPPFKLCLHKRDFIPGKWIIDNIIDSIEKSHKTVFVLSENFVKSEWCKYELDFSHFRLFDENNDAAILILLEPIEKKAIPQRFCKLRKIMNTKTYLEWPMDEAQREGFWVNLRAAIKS
Test description: TLR2 agonist screening assay, HEK-Blue TLR2 reporter cell line (NF-kB-driven SEAP, absorbance at 600 nm)
Type: cell-based
Set-up: host or cells: HEK-293 (HEK-Blue TLR2 reporter cell line)
Condition context: HEK-Blue TLR2 reporter cells, agonist mode; average of all runs (Table 4)

{"columns": ["Compound", "EC50"],
 "data": [
  ["CCCCCCCCCCCCCCNC(=O)[C@H]1CN(C(c2ccc(C(=O)N3C[C@@H](C(=O)N[C@H]4C[C@@H]4c4ccccc4)[C@H](C(=O)N[C@H]4C[C@@H]4c4ccccc4)C3)cc2)C(F)(F)F)CCN1C (stereo partly drawn) [Compound 132]", "51 to 350 nM"],
  ["CCCCCCCC(=O)N1CCN(Cc2ccc(C(=O)N3C[C@@H](C(=O)N[C@H]4C[C@@H]4c4ccccc4)[C@H](C(=O)N[C@H]4C[C@@H]4c4ccccc4)C3)cc2)C[C@@H]1C(=O)NCCCCCC [Compound 121]", "351 to 1000 nM"]
]}

Shifting focus to the compound that follows.
Inquiry: Output measured EC50 for this item: CCCCCCCCCC(=O)N[C@@H](CNc1nc2ccc(C(=O)N3C[C@@H](C(=O)N[C@H]4C[C@@H]4c4ccccc4)[C@H](C(=O)N[C@H]4C[C@@H]4c4ccccc4)C3)cc2o1)C(=O)NCCCCCC [Compound 261]
Reply text: > 1000 nM
